B1: library; numbered along this chain (parent)
chain: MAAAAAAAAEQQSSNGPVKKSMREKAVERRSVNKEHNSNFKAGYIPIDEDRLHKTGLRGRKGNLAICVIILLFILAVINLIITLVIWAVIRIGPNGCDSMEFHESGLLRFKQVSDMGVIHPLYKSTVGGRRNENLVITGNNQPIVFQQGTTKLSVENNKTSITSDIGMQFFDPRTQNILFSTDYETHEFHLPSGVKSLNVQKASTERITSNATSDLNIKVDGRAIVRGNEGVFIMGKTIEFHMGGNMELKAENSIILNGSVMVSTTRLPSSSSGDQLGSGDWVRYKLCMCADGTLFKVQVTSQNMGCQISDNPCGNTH

Variants of: B1
Test: SGCB cell-surface expression functional score (HA stain, bin4 vs bin1, normalised to synonymous) (log10 ratio); higher = more cell-surface SGCB (functional)
As shown below, each of these variants has a reported SGCB cell-surface expression functional score (log10) value.
Parameter: SGCB cell-surface expression functional score (log10)

- Residue Change: "N199R"
  Value Reported: -0.3
- Residue Change: "I309S"
  Value Reported: 0.1
- Residue Change: "Y123P"
  Value Reported: 0.1
